B1: CAMK2A (parent)
chain: CIQQILEAVLHCHQMGVVHRDLKP

Variants of: B1
Experiment: protein stability index of a GFP-peptide fusion (GPS, HEK-293T) (PSI 1-6); higher = more stable;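 also: lentivirally expressed fusions sorted by FACS into six bins by GFP to DsRed ratio, PSI derived from sequencing read proportions per bin multiplied by bin number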
Conditions: c terminus: a fixed tail appended

Variant Spec: H13G
protein stability index: 3.66

Variant Spec: D21Q
protein stability index: 2.22

Variant Spec: P24D
protein stability index: 2.99

Variant Spec: V18P
protein stability index: 2.35

Variant Spec: I5A
protein stability index: 4.67

Variant Spec: A8P
protein stability index: 2.9

Variant Spec: K23S
protein stability index: 1.65

Variant Spec: H11E
protein stability index: 2.91

Variant Spec: L10S
protein stability index: 2.21

Variant Spec: Q14H
protein stability index: 2.38

Variant Spec: I2T
protein stability index: 1.79

Variant Spec: Q14T
protein stability index: 3.88

Variant Spec: E7R
protein stability index: 2.81

Variant Spec: G16Y
protein stability index: 1.91

Variant Spec: C12Y
protein stability index: 3.8

Variant Spec: Q14E
protein stability index: 3.49

Variant Spec: L10R
protein stability index: 2.37

Variant Spec: M15Q
protein stability index: 1.22

Variant Spec: C1K
protein stability index: 2.82

Variant Spec: V18H
protein stability index: 3.82

Variant Spec: H11F
protein stability index: 3.5

Variant Spec: C12K
protein stability index: 1.82
